B1: POU domain, class 5, transcription factor 1, residues 134 to 212; numbered along this chain, Q01860 (parent)
chain: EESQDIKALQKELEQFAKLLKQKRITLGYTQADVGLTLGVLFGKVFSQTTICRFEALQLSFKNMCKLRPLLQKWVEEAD

Variants of: B1
experimental details: abundance fitness (aPCA) (normalised: wild type 0, dead -1); higher = more abundant; growth selection in yeast, the domain comes from the species named
settings: Homo sapiens
abundance fitness of -0.2 or higher: 1 (yes). Under -0.2: 0 (no).

mutation descriptor | category
L71F | 0 (no)
V45N | 1 (yes)
I51R | 0 (no)
T26N | 1 (yes)
F42W | 1 (yes)
L27C | 1 (yes)
Q10P | 0 (no)
L41D | 0 (no)
I6L | 1 (yes)
L19R | 0 (no)
S60W | 0 (no)
F61Q | 1 (yes)
E55I | 0 (no)
D79R | 1 (yes)
V45M | 1 (yes)
E77I | 1 (yes)
I51A | 0 (no)
V34L | 0 (no)
Q15W | 0 (no)
K66G | 1 (yes)
L13E | 0 (no)
F42V | 1 (yes)
T30L | 0 (no)
K18S | 1 (yes)
Q22H | 1 (yes)
N63D | 1 (yes)
F42L | 0 (no)
L67M | 1 (yes)
K11G | 1 (yes)
E12K | 1 (yes)
F61T | 1 (yes)
V40E | 1 (yes)
Y29D | 0 (no)
F16L | 1 (yes)
T26R | 1 (yes)
C65S | 0 (no)
G28K | 0 (no)
Y29F | 0 (no)
E76S | 1 (yes)
L19W | 1 (yes)
S47A | 0 (no)
